Biological target: UniProtKB P15907
Sequence (whole entry): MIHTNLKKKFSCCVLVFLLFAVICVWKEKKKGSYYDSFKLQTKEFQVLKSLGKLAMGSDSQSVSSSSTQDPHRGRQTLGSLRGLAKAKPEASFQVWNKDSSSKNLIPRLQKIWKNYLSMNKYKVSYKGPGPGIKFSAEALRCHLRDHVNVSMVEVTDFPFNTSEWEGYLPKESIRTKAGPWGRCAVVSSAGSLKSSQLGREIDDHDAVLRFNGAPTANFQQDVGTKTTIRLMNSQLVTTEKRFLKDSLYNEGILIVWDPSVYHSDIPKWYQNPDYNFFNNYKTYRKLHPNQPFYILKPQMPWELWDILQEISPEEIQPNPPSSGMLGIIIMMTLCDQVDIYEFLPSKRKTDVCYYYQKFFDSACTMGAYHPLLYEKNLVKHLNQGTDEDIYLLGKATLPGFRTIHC
Test: Inhibition of recombinant human N-terminal 6His-tagged ST6Gal-1 (Glu44 to Cys406 residues) assessed as CMP production at 10 uM using CMP-Neu5Ac as donar substrate and LacNAc as acceptor by CMP-Glo luminescence microplate reader assay relative to control
Items are presented alongside their recorded inhibition.
Answer format: numeric, % implied, no suffix.

In [3]: df
Out[3]:
                                   compound  result_number
0  O=C(NC[C@H]1O[C@@H](n2ccc(=O)[nH]c2=O)[C@H](O)[C@@H]1O)OC(c1csc2ccccc12)P(=O)(O)O (stereo in doubt; 28l-(s))            5.9

Reading of inhibition for O=C(NC[C@H]1O[C@@H](n2ccc(=O)[nH]c2=O)[C@H](O)[C@@H]1O)OC(c1ccc(F)cc1)P(=O)(O)O (stereo in doubt; 28c-(l)) with UniProtKB P15907: 58.9

Reading of inhibition for O=C(NC[C@H]1O[C@@H](n2ccc(=O)[nH]c2=O)[C@H](O)[C@@H]1O)OC(c1ccc(F)c(Oc2ccccc2)c1)P(=O)(O)O (stereo in doubt; 28b-(s)) with UniProtKB P15907: 1.1
